Numbers sourced from patent US20260274955A1.

assay.target: Anti-CD28 Fab (SEQ ID NOs: 202, 203)
Sequence (VH, as listed by the source, chain 1 of 2): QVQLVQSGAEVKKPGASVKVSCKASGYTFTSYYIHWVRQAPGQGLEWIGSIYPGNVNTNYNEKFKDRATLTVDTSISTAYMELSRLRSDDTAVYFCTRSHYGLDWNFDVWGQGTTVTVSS
Sequence (VL, as listed by the source, chain 2 of 2): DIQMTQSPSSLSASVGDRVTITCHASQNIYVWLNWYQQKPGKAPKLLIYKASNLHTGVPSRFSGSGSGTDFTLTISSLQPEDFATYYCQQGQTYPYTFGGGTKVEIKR
experiment.notes: phage binding ELISA on captured Fab;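 further: clonal phage supernatants added briefly to wells pre-incubated with CD28 antigen or with blocking buffer only, then washed, bound phage read by ELISA using HRP-coupled anti-M13 antibody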
property: Anti-CD28 Fab (SEQ ID NOs: 202, 203) signal
Please respond with just the number, no unit label.

The cases that follow already have their Anti-CD28 Fab (SEQ ID NOs: 202, 203) signal on record.
> print(dat)
                       binder  numeric.readout
1  YCEGHLREYMLKCL [Phage-764]             1.01
2  YCDGHLLMYMEKCL [Phage-800]             0.91
3  YCDGHSMTYMAKCI [Phage-815]             0.84

The measured Anti-CD28 Fab (SEQ ID NOs: 202, 203) signal associated with YCAGHAAEYMWKCL [Phage-776] reads 0.97
